For each record, write down the corresponding IC50.
# EXPERIMENTAL_SYSTEM: human noradrenaline transporter (hNET) (Homo sapiens)
# Construct: expressed in transfected cells; host or cells: COS-7 cells (ATCC), transient transfection with metafectene
# Sequence (P23975 whole entry): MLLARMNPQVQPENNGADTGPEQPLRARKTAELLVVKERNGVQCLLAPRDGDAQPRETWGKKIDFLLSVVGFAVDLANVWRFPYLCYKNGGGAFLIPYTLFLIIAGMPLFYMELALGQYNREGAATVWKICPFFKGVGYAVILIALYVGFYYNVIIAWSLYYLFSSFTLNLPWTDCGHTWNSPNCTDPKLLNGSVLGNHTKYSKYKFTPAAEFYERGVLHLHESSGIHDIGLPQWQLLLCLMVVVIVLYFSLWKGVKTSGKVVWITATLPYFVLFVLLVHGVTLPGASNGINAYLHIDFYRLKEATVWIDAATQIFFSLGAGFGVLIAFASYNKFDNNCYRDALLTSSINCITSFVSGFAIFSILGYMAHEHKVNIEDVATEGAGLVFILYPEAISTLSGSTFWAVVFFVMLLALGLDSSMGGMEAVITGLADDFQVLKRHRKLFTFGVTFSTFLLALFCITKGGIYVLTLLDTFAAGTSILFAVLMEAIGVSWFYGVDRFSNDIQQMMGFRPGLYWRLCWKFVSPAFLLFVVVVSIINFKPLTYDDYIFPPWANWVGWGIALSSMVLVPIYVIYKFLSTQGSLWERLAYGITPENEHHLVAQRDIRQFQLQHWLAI
# MEASUREMENT_DESCRIPTION: biochemical
# Assay type: binding
# CONDITION_INFO: Av IC50 Displacement of 3H-nisoxetine from hNET
Residues, ends and D or L forms follow the SMILES beside them.

Check out these entries, answers already filled in.
COMPOUND	EXPERIMENTAL_SYSTEM	IC50
CC(C)C[C@@H]1NC(=O)[C@H](CCCCN)NC(=O)[C@H](Cc2ccc(O)cc2)NC(=O)CNC(=O)[C@@H]2CSSC[C@H](NC1=O)C(=O)N[C@@H](CCC(N)=O)C(=O)N1CCC[C@H]1C(=O)N[C@H](C(N)=O)CSSC[C@H](NC(=O)[C@@H](NC(=O)CNC(=O)[C@H](CC(N)=O)NC(=O)[C@@H](N)Cc1ccc(O)cc1)C(C)C)C(=O)N2 [compound 163] (HELM PEPTIDE1{Y.N.G.V.C.C.G.Y.K.L.C.Q.P.C.[am]}$PEPTIDE1,PEPTIDE1,5:R3-14:R3|PEPTIDE1,PEPTIDE1,6:R3-11:R3$$$V2.0)	human noradrenaline transporter (hNET) (Homo sapiens)	6.92 µM
CC(C)C[C@@H]1NC(=O)[C@H](CCCCN)NC(=O)[C@H](Cc2ccc(O)cc2)NC(=O)CNC(=O)[C@@H]2CSSC[C@H](NC1=O)C(=O)N[C@@H](Cc1c[nH]c3ccccc13)C(=O)N1CCC[C@H]1C(=O)N[C@H](C(N)=O)CSSC[C@H](NC(=O)[C@@H](NC(=O)CNC(=O)[C@@H](N)CC(N)=O)C(C)C)C(=O)N2 [compound 59] (HELM PEPTIDE1{N.G.V.C.C.G.Y.K.L.C.W.P.C.[am]}$PEPTIDE1,PEPTIDE1,4:R3-13:R3|PEPTIDE1,PEPTIDE1,5:R3-10:R3$$$V2.0)	human noradrenaline transporter (hNET) (Homo sapiens)	0.174 µM
CC(=O)N[C@@H](CC(N)=O)C(=O)NCC(=O)N[C@H](C(=O)N[C@H]1CSSC[C@@H](C(N)=O)NC(=O)[C@@H]2CCCN2C(=O)[C@H](Cc2c[nH]cn2)NC(=O)[C@@H]2CSSC[C@H](NC1=O)C(=O)NCC(=O)N[C@@H](Cc1ccc(O)cc1)C(=O)N[C@@H](CCCCN)C(=O)N[C@@H](CC(C)C)C(=O)N2)C(C)C [compound 152]	human noradrenaline transporter (hNET) (Homo sapiens)	3.63 µM
CC(C)C[C@@H]1NC(=O)[C@H](CCCCN)NC(=O)[C@H](Cc2ccc(O)cc2)NC(=O)CNC(=O)[C@@H]2CSSC[C@H](NC1=O)C(=O)N[C@@H](CCCNC(=N)N)C(=O)N[C@@H](C)C(=O)N[C@H](C(N)=O)CSSC[C@H](NC(=O)[C@@H](NC(=O)CNC(=O)[C@H](CC(N)=O)NC(=O)[C@@H](N)Cc1c[nH]c3ccccc13)C(C)C)C(=O)N2 [compound 69] (HELM PEPTIDE1{W.N.G.V.C.C.G.Y.K.L.C.R.A.C.[am]}$PEPTIDE1,PEPTIDE1,5:R3-14:R3|PEPTIDE1,PEPTIDE1,6:R3-11:R3$$$V2.0)	human noradrenaline transporter (hNET) (Homo sapiens)	0.219 µM

Consider the record given below.
Lookup result for CC(C)C[C@H](NC(=O)[C@H](CC(=O)O)NC(=O)[C@H](CCCCN)NC(=O)[C@@H](N)Cc1c[nH]c2ccccc12)C(=O)N[C@H]1CSSC[C@@H](C(N)=O)NC(=O)[C@@H]2CCCN2C(=O)[C@H](Cc2c[nH]cn2)NC(=O)[C@@H]2CSSC[C@H](NC1=O)C(=O)NCC(=O)N[C@@H](Cc1ccc(O)cc1)C(=O)N[C@@H](CCCCN)C(=O)N[C@@H](CC(C)C)C(=O)N2 [compound 85] (HELM PEPTIDE1{W.K.D.L.C.C.G.Y.K.L.C.H.P.C.[am]}$PEPTIDE1,PEPTIDE1,5:R3-14:R3|PEPTIDE1,PEPTIDE1,6:R3-11:R3$$$V2.0) ; measured IC50: 0.309 µM
